# test.target: UniProt P12931
# Sequence (P12931 2-536 limits assumed): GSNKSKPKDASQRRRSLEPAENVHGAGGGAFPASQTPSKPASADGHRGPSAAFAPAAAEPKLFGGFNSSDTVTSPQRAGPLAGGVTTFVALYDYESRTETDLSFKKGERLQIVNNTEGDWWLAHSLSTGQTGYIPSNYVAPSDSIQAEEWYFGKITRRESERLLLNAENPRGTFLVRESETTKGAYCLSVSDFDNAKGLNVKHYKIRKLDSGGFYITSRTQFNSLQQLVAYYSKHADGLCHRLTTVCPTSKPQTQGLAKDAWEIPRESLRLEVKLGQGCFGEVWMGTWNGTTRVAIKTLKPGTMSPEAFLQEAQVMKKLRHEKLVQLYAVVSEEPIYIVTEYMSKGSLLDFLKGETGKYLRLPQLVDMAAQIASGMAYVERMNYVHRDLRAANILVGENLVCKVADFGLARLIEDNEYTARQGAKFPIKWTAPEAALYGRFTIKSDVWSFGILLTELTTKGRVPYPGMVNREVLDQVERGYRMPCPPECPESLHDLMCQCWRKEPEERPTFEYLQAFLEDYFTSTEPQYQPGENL
pIC50: −log10 of the molar value.

# mol, pIC50
measured = [
    ("COc1cc(Nc2c(C#N)cnc3cc(-c4ccc(CN5CCOCC5)s4)ccc23)c(Cl)cc1Cl", 8.60),
    ("COc1cc(Nc2c(C#N)cnc3cc(-c4cscc4CN4CCOCC4)ccc23)c(Cl)cc1Cl", 6.62),
    ("COc1cc(Nc2c(C#N)cnc3cc(-c4ccsc4CN4CCOCC4)ccc23)c(Cl)cc1Cl", 6.36),
    ("COc1cc(Nc2c(C#N)cnc3cc(-c4csc(CN5CCC(O)CC5)c4)ccc23)c(Cl)cc1Cl", 8.85),
]
